Biological target: human PD-L1 (cell surface) (human, UniProt Q9NZQ7)
Sequence (Q9NZQ7 19-238): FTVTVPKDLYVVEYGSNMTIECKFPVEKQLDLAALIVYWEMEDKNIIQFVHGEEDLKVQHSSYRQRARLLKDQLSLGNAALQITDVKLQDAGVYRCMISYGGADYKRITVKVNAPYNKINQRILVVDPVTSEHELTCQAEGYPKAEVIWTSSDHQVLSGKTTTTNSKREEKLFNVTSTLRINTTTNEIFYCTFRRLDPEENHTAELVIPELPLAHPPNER
Assay: FACS
endpoint: EC50 (nM)

The cases that follow already have their EC50 on record.
>  <binder>
R2-1G4 (antibody, V domains shown) VH: QVQLVESGGGLVQPGGSLRLSCAASGIDFSDTHMGWYRQAPGKERELVALITSGGFTDYADSVKGRFTISRDNAKNTMYLQMNTLKFEDTAVYYCNARRTTIYWGQGTQVTVSS

>  <endpoint>
EC50

>  <reported measurement>
0.42

$$$$
>  <binder>
R1-1C3 (antibody, V domains shown) VH: EVQLVQSGGGLVQPGGSLRLSCAASGIFFSDTHMGWYRQAPGKERELVAIITSGGSTDYVDSVKGRFTISRDNAKNTVYLQMNTLKFEDTAVYYCNARRTTIYWGQGTQVTVSS

>  <endpoint>
EC50

>  <reported measurement>
1.69

$$$$
>  <binder>
R2-4H8 (antibody, V domains shown) VH: EVQLVESGGGLVQPGGSLRLSCGASGIFFSGVHMGWYRQAPGKERELVALITDSGSADYVDSVKGRFTISRDNAKNTVYLQMNSLKFEDTAVYYCNARTTTIYWGQGTQVTVSS

>  <endpoint>
EC50

>  <reported measurement>
0.87

$$$$
>  <binder>
R2-6A10 (antibody, V domains shown) VH: QVQLVESGGGLVQPGGSLRLSCAASGIDFSDTHMGWYRQAPGKERELVALITSGGFTDYADSVKGRFTISRDNAKNTMYLQMNTLKFEDTAVYYCNARRSTIYWGQGTQVTVSS

>  <endpoint>
EC50

>  <reported measurement>
0.54

$$$$
>  <binder>
R2-3A5 (antibody, V domains shown) VH: EVQLVESGGGLVQPGGSLRLSCAASGIDFSDTHMGWYRQAPGKQRELVALITSGGFTDYADSVKGRFTISRDNAKNTMYLQMNTLKLEDTAVYYCNARRTTIYWGQGTQVTVSS

>  <endpoint>
EC50

>  <reported measurement>
0.6

$$$$
>  <binder>
R3-3H1 (antibody, V domains shown) VH: QLQLVESGGGVVQPGGSLRLSCAASGIDFSDTHMGWYRQAPGKQRELVAIITSGGSTDYVDSVKGRFTISRDNAKNTVYLQMNSLKFEDTAVYYCNARRSTIYWGQGTQVTVSS

>  <endpoint>
EC50

>  <reported measurement>
0.815

$$$$

(a) R2-6D2 (antibody, V domains shown) VH: QVQLVESGGGLVQPGGSLRLSCAASGIDFSDTHMGWYRQAPGKERELVALITSGGFTDYADSVKGRFTISRDNAKNTMYLQMNTLKFEDTAVYYCNARKTTIYWGQGTQVTVSS
(b) R2-4D2 (antibody, V domains shown) VH: QVQLVESGGGLVQAGGSLRLSCAASGFSASDVVMAWYRQAPGKQREFVANLGASSTTRYADSVKGRFTISRDDAKNTVSLQMNSLKSEDTAVYYCNALVWNGSSYNNWGQGTQVTVSS
-- ask Identify the entry with the smaller EC50: a or b . Please respond with the label that marks your chosen entry.
-- reply b
